From: patent US20260078108A1

experiment-description: Solubility testing in water, SGF, FaSSIF, FeSSIF at 37° C.
Assay type: physicochemical
test-settings: pH of sample in Water (pH of media 7.9), 2 h
Where a name gives a salt, the structure may show the parent alone.
measurement-kind: pH
Numbers only.

compound | measurement-kind | numeric-readout
NCc1ccc(C(=O)Nc2ccncc2F)cc1-c1cccc(C(=O)Nc2ccc(SC[C@H]3CCOC3=O)cc2)c1 [Succinate Form I] | pH | 4.2

Batch lookup, pH per entry.
1. NCc1ccc(C(=O)Nc2ccncc2F)cc1-c1cccc(C(=O)Nc2ccc(SC[C@H]3CCOC3=O)cc2)c1 [HCl salt Form II]
2. NCc1ccc(C(=O)Nc2ccncc2F)cc1-c1cccc(C(=O)Nc2ccc(SC[C@H]3CCOC3=O)cc2)c1 (stereo in doubt) [HCl salt Form I]
3. NCc1ccc(C(=O)Nc2ccncc2F)cc1-c1cccc(C(=O)Nc2ccc(SC[C@H]3CCOC3=O)cc2)c1 [Freebase Form I]

[4.8, 5.7, 7.6]

---

Please respond with reported Solubility for every item in the list.
experiment-description: Solubility testing in water, SGF, FaSSIF, FeSSIF at 37° C.
Type: physicochemical
test-settings: SGF (pH of media 1.2), 37° C., 24 h
Structures can show the parent of a compound that is named as a salt.
Answers are plain numbers, in mg/mL.

molecule | measurement-kind | numeric-readout
NCc1ccc(C(=O)Nc2ccncc2F)cc1-c1cccc(C(=O)Nc2ccc(SC[C@H]3CCOC3=O)cc2)c1 (stereo in doubt) [HCl salt Form I] | Solubility | 1.355

Batch lookup, Solubility per entry.
1. NCc1ccc(C(=O)Nc2ccncc2F)cc1-c1cccc(C(=O)Nc2ccc(SC[C@H]3CCOC3=O)cc2)c1 [Succinate Form I]
2. NCc1ccc(C(=O)Nc2ccncc2F)cc1-c1cccc(C(=O)Nc2ccc(SC[C@H]3CCOC3=O)cc2)c1 [HCl salt Form II]

1: 4.005; 2: 3.372

---

experiment-description: Solubility testing in water, SGF, FaSSIF, FeSSIF at 37° C.
Format: physicochemical
test-settings: Fed State Simulated Intestinal Fluid (FeSSIF), 37 °C, pH 5, fessif, thermodynamic from solid, FeSSIF (pH of media 5.0), 24 h
Counter-ions that a name gives are not always drawn.
measurement-kind: solubility at 24 h

Which solubility at 24 h value belongs to NCc1ccc(C(=O)Nc2ccncc2F)cc1-c1cccc(C(=O)Nc2ccc(SC[C@H]3CCOC3=O)cc2)c1 [HCl salt Form II] ?
57 µg/mL

---

Please respond with reported pH for every item in the list.
experiment-description: Solubility testing in water, SGF, FaSSIF, FeSSIF at 37° C.
Assay type: physicochemical
test-settings: pH of sample in FeSSIF (pH of media 5.0), 0.5 h
Where a name gives a salt, the structure may show the parent alone.

Take a look at these entries with their results.
compound | measurement-kind | result
NCc1ccc(C(=O)Nc2ccncc2F)cc1-c1cccc(C(=O)Nc2ccc(SC[C@H]3CCOC3=O)cc2)c1 (stereo in doubt) [HCl salt Form I] | pH | 4.9
NCc1ccc(C(=O)Nc2ccncc2F)cc1-c1cccc(C(=O)Nc2ccc(SC[C@H]3CCOC3=O)cc2)c1 [Succinate Form I] | pH | 4.8
NCc1ccc(C(=O)Nc2ccncc2F)cc1-c1cccc(C(=O)Nc2ccc(SC[C@H]3CCOC3=O)cc2)c1 [HCl salt Form II] | pH | 4.9

Which pH value belongs to NCc1ccc(C(=O)Nc2ccncc2F)cc1-c1cccc(C(=O)Nc2ccc(SC[C@H]3CCOC3=O)cc2)c1 [Freebase Form I] ?
5.0

---

experimental-system: MAO-A (Rattus norvegicus, UniProt P21396)
Sequence (P21396 1-526): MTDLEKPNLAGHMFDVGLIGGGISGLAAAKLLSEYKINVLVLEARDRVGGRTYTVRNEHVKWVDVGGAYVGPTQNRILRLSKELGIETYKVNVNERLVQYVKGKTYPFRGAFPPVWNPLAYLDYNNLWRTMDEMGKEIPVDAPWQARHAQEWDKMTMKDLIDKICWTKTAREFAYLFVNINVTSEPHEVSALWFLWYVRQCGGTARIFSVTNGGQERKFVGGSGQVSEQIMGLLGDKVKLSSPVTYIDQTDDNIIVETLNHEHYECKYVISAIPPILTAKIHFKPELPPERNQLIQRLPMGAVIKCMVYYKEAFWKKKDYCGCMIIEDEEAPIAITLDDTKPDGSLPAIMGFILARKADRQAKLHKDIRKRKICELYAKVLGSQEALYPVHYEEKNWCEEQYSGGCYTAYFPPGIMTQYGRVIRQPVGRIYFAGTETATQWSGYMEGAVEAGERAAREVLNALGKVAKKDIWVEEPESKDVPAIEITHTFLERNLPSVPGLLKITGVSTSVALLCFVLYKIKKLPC
Please respond with reported IC50 for every item in the list.
Answers are plain numbers, in µM.

compound | IC50 (µM)
NCc1ccc(C(=O)Nc2ccncc2F)cc1-c1cccc(C(=O)Nc2ccc(SC[C@@H]3CCOC3=O)cc2)c1 [R-enantiomer] | 4.3

Pending compound:
Which IC50 value belongs to NCc1ccc(C(=O)Nc2ccncc2F)cc1-c1cccc(C(=O)Nc2ccc(SC[C@H]3CCOC3=O)cc2)c1 [S-enantiomer] ?
0.82

---

experimental-system: LATS2 (Homo sapiens)
Sequence (Q9NRM7 whole entry, species assumed): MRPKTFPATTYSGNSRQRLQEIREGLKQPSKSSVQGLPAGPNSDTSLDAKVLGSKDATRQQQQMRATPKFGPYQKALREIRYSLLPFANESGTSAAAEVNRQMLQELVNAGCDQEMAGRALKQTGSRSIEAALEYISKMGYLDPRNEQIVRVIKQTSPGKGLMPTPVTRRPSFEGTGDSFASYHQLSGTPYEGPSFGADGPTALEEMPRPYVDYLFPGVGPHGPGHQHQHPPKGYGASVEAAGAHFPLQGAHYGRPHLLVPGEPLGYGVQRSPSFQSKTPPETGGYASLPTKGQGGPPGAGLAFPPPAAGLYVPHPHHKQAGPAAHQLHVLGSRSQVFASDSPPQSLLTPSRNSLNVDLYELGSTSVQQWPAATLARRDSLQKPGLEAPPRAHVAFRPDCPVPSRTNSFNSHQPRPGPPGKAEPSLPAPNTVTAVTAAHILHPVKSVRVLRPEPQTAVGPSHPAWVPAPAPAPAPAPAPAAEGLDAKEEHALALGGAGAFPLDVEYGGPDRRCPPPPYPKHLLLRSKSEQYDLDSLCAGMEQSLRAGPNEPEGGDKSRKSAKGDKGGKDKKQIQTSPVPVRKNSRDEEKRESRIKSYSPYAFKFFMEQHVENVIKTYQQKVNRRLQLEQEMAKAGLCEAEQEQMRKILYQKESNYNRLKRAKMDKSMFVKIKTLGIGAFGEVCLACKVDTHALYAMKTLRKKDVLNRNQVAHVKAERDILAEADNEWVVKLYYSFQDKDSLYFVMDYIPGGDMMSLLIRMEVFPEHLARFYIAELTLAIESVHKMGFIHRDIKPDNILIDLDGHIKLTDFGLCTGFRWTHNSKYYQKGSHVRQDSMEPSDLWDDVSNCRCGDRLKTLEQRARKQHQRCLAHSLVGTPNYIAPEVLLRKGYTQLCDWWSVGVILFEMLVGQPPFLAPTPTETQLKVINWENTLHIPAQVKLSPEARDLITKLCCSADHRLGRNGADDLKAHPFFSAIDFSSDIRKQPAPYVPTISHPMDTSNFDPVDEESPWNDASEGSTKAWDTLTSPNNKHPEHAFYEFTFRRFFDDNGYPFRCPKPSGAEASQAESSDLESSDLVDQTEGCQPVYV
experiment-description: Kinase panel 33P-ATP filter assay, LATS2
Type: biochemical
test-settings: HCl salt tested; ATP Conc. 30 μM (Km); read-out: Compound IC50 (nM) LATS2
Please respond with reported IC50 for every item in the list.
The number alone won't do; follow it with the unit.

molecule | experimental-system | IC50
NCc1ccc(C(=O)Nc2ccncc2F)cc1-c1cccc(C(=O)Nc2ccc(SC[C@H]3CCOC3=O)cc2)c1 [S-enantiomer] | LATS2 (Homo sapiens) | 33.3 nM

Pending molecule:
Entry NCc1ccc(C(=O)Nc2ccncc2F)cc1-c1cccc(C(=O)Nc2ccc(SC[C@@H]3CCOC3=O)cc2)c1 [R-enantiomer] , system LATS2 (Homo sapiens): what IC50 was measured?
42.7 nM

---

experiment-description: Solubility testing in water, SGF, FaSSIF, FeSSIF at 37° C.
Type: physicochemical
test-settings: water, 37 °C, pH 7.9, water, thermodynamic from solid, Water (pH of media 7.9), 0.5 h
measurement-kind: solubility at 0.5 h
The number alone won't do; follow it with the unit.

Which solubility at 0.5 h value belongs to NCc1ccc(C(=O)Nc2ccncc2F)cc1-c1cccc(C(=O)Nc2ccc(SC[C@H]3CCOC3=O)cc2)c1 [Succinate Form I] ?
363 µg/mL
